System: Fer (mouse)
EXPERIMENTAL_PROTOCOL: phosphorylation enrichment, bacterial display (enrichment ratio); higher = better substrate or ligand; peptides without Tyr show the background;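 also: 11-residue human phosphosite peptides and single-mutation variants displayed on the E. coli surface, counted by deep sequencing, each peptide's frequency after selection divided by its frequency in the unselected input library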;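 also: frequency after pTyr selection over input frequency; kinase dosed for 20-30% of maximal phosphorylation in three min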
phosphorylation enrichment listing for selected sequences.

Solved cases (5 shown):
Given the sequence RNAAEYLLSSG [ABL1_Y139] , what is its reported phosphorylation enrichment?
0.596

Need phosphorylation enrichment, item KNNSIYVLANI [VNN1_Y134_V136L]
2.7

Quick one: phosphorylation enrichment of LTQRTYMLENA [GPAA1_Y49_S51L] ?
0.468

So what does the record say about phosphorylation enrichment for IRGNMYYENSY [EGFR_Y112] ?
0.535

Form field: reported phosphorylation enrichment of KDKLPYPFDDP [GPX2_Y125_YF]
0.533

Moving on to the next sequence.
So what's the measured phosphorylation enrichment for this one? HAVFIYDICHV [TWNK_Y508_V507I_YF]
4.14

---

System: AncSZ
EXPERIMENTAL_PROTOCOL: phosphorylation enrichment, bacterial display (enrichment ratio); higher = better substrate or ligand; peptides without Tyr show the background
Attribute: phosphorylation enrichment
Format: numeric value only, no unit, no commentary.

Some solved cases for reference:
Which phosphorylation enrichment is reported with AncSZ for this entry: KGVDRYNPENL [EIF3K_Y21_I18V] ?
0.502

Can you look up phosphorylation enrichment on AncSZ for AFLEDYFTSTK [SRC_Y522_E527K] ?
1.1

State its phosphorylation enrichment on AncSZ: EACRSYSHVVL [CHST6_Y168]
0.808

More entries:
Report phosphorylation enrichment for REEIKYMLWLS [OTC_Y55_G50R] tested on AncSZ.
1.23

Form field - read-out: phosphorylation enrichment; system: AncSZ; submitted item: RESSGYLRLAF [MEP1A_Y481]
1.46

Value wanted: phosphorylation enrichment (AncSZ) of entry AAVLNYKAWRD [GRIN2A_Y737_G740W]
0.839

What measured phosphorylation enrichment is associated with RNDLDYMDSRR [GAA_Y407_W402R] on AncSZ?
0.809

// lookup phosphorylation enrichment | system=AncSZ | key= VLTSKYCGGGG [HBA1_Y141_R142C]
0.603

Which measured phosphorylation enrichment belongs to IHSGIYFKPES [L2HGDH_Y102_YF] , tested on AncSZ?
1.39

Can you look up phosphorylation enrichment on AncSZ for LLREWYLQDPF [SIX3_Y225_YF] ?
1.43

// lookup phosphorylation enrichment | system=AncSZ | key= STQAHYRLSAF [ADAMTS9_Y100_S96T]
0.582

---

EXPERIMENTAL_TARGET: Fyn (UniProt P06241)
Sequence (P06241 whole entry, looked up): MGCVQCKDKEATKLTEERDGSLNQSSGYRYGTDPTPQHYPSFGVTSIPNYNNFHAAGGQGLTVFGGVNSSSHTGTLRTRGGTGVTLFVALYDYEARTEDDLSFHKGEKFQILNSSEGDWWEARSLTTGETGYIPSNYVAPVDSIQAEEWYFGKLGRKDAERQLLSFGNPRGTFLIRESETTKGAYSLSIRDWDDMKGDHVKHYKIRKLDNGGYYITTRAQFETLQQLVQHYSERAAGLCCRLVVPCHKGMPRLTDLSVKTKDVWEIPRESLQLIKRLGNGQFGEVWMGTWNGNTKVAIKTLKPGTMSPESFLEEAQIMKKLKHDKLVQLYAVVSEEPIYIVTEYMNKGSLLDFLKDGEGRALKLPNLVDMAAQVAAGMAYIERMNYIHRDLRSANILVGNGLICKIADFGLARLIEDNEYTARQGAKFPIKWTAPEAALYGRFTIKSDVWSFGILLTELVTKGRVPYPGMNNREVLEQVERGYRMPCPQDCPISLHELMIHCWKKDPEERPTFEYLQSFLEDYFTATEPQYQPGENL
EXPERIMENTAL_PROTOCOL: phosphorylation enrichment, bacterial display (enrichment ratio); higher = better substrate or ligand; peptides without Tyr show the background
Note to self: class = bucket of phosphorylation enrichment, per low bracket: < 0.5; middle bracket: ≥ 0.5 and < 0.7; high bracket: ≥ 0.7

Consider the worked cases shown below.
Form: Item = RFLERDIFNRE [HLA-DPB1_Y57_Y57D_YF] ; Class = ?
middle bracket

Just checking, what class would you give HLVLNYGVCIC [JAK2_Y613_V617I] here?
middle bracket

Pick a category. Item: SVEVPYEPPEV [TP53_Y220_V217E]
middle bracket

Class for PADCRYYAFPQ [GAMT_Y222] ?
high bracket

// bin(item) where item = SRLSAYPALEG [CD5_Y465_H461R]
low bracket

For RDSQLYAVDYE [MRPS34_Y34] , which phosphorylation enrichment bin applies?
high bracket

Place this sequence in its band: GRRGQYVMPSE [TTC7A_Y396_L399P]
low bracket

For this sequence, which bin applies? VECRVYAEDPF [PCCA_Y401_YF]
middle bracket

Textbook exercise: identify the category of the sequence given here, HLTLVYGGIFL [FBP1_Y259_R255L] , according to its measured value.
high bracket

Quick check: band for PDNEPYIFKVF [PIK3AP1_Y553]
high bracket

We next turn to a different sequence, shown below.
Hi there! Could you help me figure out the category for PPEFSYGLQTQ [SRA1_Y35_Q32E] please?
low bracket

---

EXPERIMENTAL_TARGET: Fes (UniProt P07332)
Sequence (P07332 whole entry, looked up): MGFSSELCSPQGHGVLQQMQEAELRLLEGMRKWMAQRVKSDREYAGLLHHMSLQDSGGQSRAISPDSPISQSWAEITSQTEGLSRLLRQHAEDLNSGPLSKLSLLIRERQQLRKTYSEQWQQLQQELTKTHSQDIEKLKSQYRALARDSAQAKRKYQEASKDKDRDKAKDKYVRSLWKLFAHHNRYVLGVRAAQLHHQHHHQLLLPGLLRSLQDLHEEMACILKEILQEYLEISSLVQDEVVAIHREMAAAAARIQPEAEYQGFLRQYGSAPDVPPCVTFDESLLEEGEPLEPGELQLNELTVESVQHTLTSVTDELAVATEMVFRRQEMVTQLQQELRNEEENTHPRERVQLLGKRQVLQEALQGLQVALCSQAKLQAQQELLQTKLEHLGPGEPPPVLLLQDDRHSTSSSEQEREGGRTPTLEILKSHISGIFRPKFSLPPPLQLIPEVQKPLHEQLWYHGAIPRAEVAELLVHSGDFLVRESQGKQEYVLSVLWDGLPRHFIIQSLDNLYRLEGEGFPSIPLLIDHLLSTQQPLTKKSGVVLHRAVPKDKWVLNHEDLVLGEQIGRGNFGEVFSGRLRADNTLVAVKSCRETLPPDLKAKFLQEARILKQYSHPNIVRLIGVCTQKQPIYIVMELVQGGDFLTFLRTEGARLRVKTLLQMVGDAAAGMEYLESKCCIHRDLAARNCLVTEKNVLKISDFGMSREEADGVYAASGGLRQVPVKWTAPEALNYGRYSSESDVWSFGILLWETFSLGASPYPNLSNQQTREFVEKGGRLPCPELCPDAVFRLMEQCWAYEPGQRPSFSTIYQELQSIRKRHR
EXPERIMENTAL_PROTOCOL: phosphorylation enrichment, bacterial display (enrichment ratio); higher = better substrate or ligand; peptides without Tyr show the background
Param threshold (1) applies to phosphorylation enrichment; output met when value >= threshold, not met when value < threshold.

Consider the worked cases shown below.
Kindly determine if phosphorylation enrichment recorded for KTDKKYLMIKE [BAG3_Y451_E455K] is above or exactly 1.
not met

Reported phosphorylation enrichment reaches at least 1 for ATDLAYYLVRE [ASL_Y375_K380E] ?
not met

Decide: phosphorylation enrichment of GHNDVYILEHV [GRIN2A_Y1423_S1425L] >= 1?
met

Identify whether the reported phosphorylation enrichment of the following sequence is 1 or greater: IRKDLYANNVL [ACTA2_Y296]
not met

Does phosphorylation enrichment meet or surpass 1 for ILLAGCLVMVI [SLC28A3_Y113_Y113C] ?
met

Further cases:
Quick check, phosphorylation enrichment >= 1? IHSGIYFKPES [L2HGDH_Y102_YF]
not met

Could you verify whether the entry KFADVYVGICL [B3GALNT1_Y269_E266A] shows phosphorylation enrichment of no less than 1?
met

Textbook exercise: given the entry LITTPYIGFLG [KCNQ1_Y267_L266P] , state whether its phosphorylation enrichment is greater than or equal to 1.
met

Exam item: decide whether the reported phosphorylation enrichment for VTPVMYTFDEF [COL10A1_Y623_G618V_YF] is at least 1.
met

---

Quick reference: phosphorylation enrichment of the listed items.
EXPERIMENTAL_TARGET: Jak2 (UniProt O60674)
Sequence (O60674 whole entry, looked up): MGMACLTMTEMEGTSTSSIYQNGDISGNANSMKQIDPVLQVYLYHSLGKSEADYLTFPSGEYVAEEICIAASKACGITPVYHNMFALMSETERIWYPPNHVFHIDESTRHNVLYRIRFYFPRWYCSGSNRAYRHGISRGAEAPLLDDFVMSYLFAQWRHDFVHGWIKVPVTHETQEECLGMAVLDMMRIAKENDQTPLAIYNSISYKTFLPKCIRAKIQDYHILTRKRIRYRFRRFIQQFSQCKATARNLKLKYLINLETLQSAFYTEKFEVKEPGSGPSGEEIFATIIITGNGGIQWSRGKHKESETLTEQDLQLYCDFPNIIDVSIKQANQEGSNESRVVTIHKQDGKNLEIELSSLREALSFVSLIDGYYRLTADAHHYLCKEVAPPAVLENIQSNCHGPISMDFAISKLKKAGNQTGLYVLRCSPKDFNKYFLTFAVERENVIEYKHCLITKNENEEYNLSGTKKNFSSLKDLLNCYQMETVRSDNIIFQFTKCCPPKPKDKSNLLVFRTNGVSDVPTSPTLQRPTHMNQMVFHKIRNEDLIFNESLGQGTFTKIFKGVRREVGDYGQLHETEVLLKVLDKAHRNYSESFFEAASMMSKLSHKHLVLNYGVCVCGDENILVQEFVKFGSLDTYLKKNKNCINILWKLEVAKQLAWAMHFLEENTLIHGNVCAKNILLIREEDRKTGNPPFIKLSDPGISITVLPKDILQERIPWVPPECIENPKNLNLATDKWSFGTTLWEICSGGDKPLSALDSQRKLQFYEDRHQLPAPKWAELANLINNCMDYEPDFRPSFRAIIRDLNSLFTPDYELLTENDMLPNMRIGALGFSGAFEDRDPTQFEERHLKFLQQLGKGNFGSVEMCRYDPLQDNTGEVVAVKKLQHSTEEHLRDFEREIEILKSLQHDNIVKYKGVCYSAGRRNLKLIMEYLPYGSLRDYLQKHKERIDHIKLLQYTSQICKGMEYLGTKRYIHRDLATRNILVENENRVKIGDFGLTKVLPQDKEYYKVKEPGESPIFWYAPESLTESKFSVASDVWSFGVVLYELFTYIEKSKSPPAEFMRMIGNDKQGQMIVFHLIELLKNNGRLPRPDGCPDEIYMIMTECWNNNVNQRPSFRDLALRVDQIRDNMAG
EXPERIMENTAL_PROTOCOL: phosphorylation enrichment, bacterial display (enrichment ratio); higher = better substrate or ligand; peptides without Tyr show the background
// no unit string in output, number only

Below, each entry is followed by its recorded phosphorylation enrichment result.
# get_value(readout='phosphorylation enrichment', item= REAAAYPHGRL [AGXT_Y297_L298P] )
0.704

I would be grateful if you could share the reported phosphorylation enrichment for PRRRFYVVACD [RNASE3_Y134_G130R] .
0.733

# get_value(readout='phosphorylation enrichment', item= TVLEPYTDPFF [ZC3H18_Y367_A368T_YF] )
1.09

# input sequence: PVQAAYQKVEA [HBB_Y131_V135E] ; wanted: its phosphorylation enrichment
1.16

Bench note: what phosphorylation enrichment did RDSQLYAVDFE [MRPS34_Y34_YF] show?
1.09

Requested field: phosphorylation enrichment. Item: VTPVMYTFDEF [COL10A1_Y623_G618V_YF]
1.02

Form field: reported phosphorylation enrichment of NKEAIYSGYIR [SMCHD1_Y283]
0.571

What does the data say about its phosphorylation enrichment? Entry: RETLTYAQAQR [BRD1_Y33]
0.694

Continuing:
Consider the sequence shown here: AQVDTYCRHNY [HLA-DRB1_Y107_A103Q] What is its recorded phosphorylation enrichment?
0.764

Suppose we examine the sequence SYMVRYNQPRV [GRIN2D_Y736] ; what phosphorylation enrichment value has been reported?
0.651

Fill in: phosphorylation enrichment of PRNLIYFGEHP [TRPV6_Y201_C197R] is ___
1.57

What value of phosphorylation enrichment has been recorded for this entry: QGLRLYRTHLA [BTK_Y617_P619T]
0.577

For the sequence LITTLYIGFLD [KCNQ1_Y267_G272D] , what phosphorylation enrichment is on record?
3.07

Reported phosphorylation enrichment, sequence KTDVRYRSLGG [DYSF_Y1858_H1857R] : ____
0.553

Given SVEVPYEPPEV [TP53_Y220_V217E] , state its recorded phosphorylation enrichment.
1.41

Could you share which phosphorylation enrichment value was measured for YRAPGYREVVI [TNS2_Y673] ?
0.509

Item LVQAEYWHDRI [PPT1_Y185_P189R] has what recorded phosphorylation enrichment?
1.25

---

EXPERIMENTAL_TARGET: EPHB2 (UniProt P29323)
Sequence (P29323 whole entry, looked up): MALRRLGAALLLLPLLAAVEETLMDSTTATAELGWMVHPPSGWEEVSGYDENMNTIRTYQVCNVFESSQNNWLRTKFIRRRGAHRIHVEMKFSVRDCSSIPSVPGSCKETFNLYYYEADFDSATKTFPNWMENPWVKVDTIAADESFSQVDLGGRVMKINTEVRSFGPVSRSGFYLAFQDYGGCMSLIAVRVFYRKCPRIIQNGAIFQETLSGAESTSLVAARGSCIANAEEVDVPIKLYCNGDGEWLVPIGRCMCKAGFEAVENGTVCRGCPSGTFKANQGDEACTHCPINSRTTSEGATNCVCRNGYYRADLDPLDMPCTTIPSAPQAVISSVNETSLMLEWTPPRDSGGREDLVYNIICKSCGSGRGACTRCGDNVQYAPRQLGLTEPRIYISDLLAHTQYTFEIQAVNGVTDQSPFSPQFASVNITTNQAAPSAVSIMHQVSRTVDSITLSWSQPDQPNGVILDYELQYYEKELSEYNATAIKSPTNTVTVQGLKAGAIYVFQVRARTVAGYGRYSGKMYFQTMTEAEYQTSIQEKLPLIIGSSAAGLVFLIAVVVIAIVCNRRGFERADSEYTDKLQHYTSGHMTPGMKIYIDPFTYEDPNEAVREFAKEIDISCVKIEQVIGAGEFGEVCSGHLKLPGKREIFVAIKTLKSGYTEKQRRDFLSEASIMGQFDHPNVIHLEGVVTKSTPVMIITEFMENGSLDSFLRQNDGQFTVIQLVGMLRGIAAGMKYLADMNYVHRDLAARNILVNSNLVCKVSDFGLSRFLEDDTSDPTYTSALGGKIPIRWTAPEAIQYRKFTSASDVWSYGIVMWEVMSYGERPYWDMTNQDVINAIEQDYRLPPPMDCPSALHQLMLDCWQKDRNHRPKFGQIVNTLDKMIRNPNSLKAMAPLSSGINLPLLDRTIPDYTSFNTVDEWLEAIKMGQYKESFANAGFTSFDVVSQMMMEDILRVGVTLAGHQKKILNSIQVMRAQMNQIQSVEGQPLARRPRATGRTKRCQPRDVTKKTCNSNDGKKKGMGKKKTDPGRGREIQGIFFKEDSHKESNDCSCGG
EXPERIMENTAL_PROTOCOL: phosphorylation enrichment, bacterial display (enrichment ratio); higher = better substrate or ligand; peptides without Tyr show the background
Please note: 1 applies when phosphorylation enrichment is 0.6 or greater, and -1 applies otherwise.

Given RSAGKDDVFLI [MECP2_Y120_Y120D_YF] , state whether its phosphorylation enrichment is at least 0.6.
1

Could you please find out whether GSSEDYLHMVH [NIPBL_Y247] has phosphorylation enrichment that meets 0.6 or exceeds it?
-1

Kindly determine if phosphorylation enrichment recorded for YAKSVYWENTL [NUP107_Y296] is above or exactly 0.6.
-1

Is phosphorylation enrichment for RASDFYSQQMA [GBP6_Y334_A331S_YF] at or above 0.6?
1

phosphorylation enrichment >= 0.6 for RAIELYNDKEK [OTULIN_Y244] ?
1

# bool: phosphorylation enrichment of PDKRIYQFTAA [SKAP2_Y197] >= 0.6
-1

Please check the record LSDGPYSNSFE [EPOR_Y485_P488S_YF] and state if its phosphorylation enrichment is at or above 0.6.
1
